The values you see were collected from patent US20260297129A1.

Test: Solubility of peptide compounds in buffer formulations (Table 5)
Format: physicochemical
Details: aqueous buffer; 50 mM phosphate buffer pH 7.4, 2 h agitation, target 1 mg/ml; read-out: Solubility, Buffer pH 7.4
Numbered stars: 1 amine (or outer) side, 2 acyl side, 3 side chain; on linkers, the order of the positions; unused ones are H or OH. Bridge positions count the residues as written; N and C are the ends. Square brackets hold non-standard residues; d marks the D form. Peptide text beside a SMILES is read from it. * marks the point of attachment. Trp(7-Me) = Cc1cccc2c(C[C@H](N)C(=O)O)c[nH]c12; Sebacoyl = O=C(CCCCCCCCC(=O)[*:2])[*:1]; 2Nal = N[C@@H](Cc1ccc2ccccc2c1)C(=O)O; 3Pal = N[C@@H](Cc1cccnc1)C(=O)O; Thp = NC1(C(=O)O)CCOCC1; Me2NCH2CH2 = CN(C)CC*; Aib = CC(C)(N)C(=O)O; Sar = CNCC(=O)O
measured_quantity: solubility at 2 h (µg/mL)
Reply with just the number (in µg/mL).

Sample Cc1cccc2c(C[C@@H]3NC(=O)CCCCCCCCC(=O)NCCCC[C@@H](C(=O)N[C@@H](CC(N)=O)C(=O)N[C@@H](Cc4cccnc4)C(=O)N(C)CC(N)=O)NC(=O)C(C)(C)NC(=O)[C@H](Cc4ccc5ccccc5c4)NC(=O)[C@H](Cc4ccc(OCCN(C)C)cc4)NC(=O)C4(CCOCC4)NC(=O)[C@H](CCC(N)=O)NC3=O)c[nH]c12 [compound 11] ([Trp(7-Me)]Q[Thp]Y(Me2NCH2CH2)[2Nal][Aib]KN[3Pal][Sar]-NH2; linker N-7 via Sebacoyl) — what was its solubility at 2 h? 500
